target: IDO (Homo sapiens (Human), UniProt P14902); experiment: LLE_IDO_ABS_DR (IDO assay, method not described)
Sequence (P14902 whole entry): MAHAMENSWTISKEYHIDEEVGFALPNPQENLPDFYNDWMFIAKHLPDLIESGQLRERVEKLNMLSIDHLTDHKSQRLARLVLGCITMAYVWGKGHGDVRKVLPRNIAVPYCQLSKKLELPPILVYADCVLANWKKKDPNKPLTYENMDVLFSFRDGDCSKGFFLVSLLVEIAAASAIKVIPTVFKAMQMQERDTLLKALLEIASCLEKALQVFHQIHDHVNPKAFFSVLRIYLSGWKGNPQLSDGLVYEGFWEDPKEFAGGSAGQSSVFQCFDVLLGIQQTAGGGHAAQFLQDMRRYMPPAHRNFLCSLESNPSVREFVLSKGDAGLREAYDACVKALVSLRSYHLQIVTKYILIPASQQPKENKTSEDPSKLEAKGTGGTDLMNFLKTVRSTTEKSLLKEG
Recorded measurements of IC50, one per entry
Write it as a number; the unit nM goes unstated.

>  <molecule>
CCCOc1c(CCCc2ccccc2)cc(-c2ccccc2-c2nnn[nH]2)cc1NC(=O)Nc1ccc(C)cc1

>  <target-entity>
IDO (Homo sapiens (Human), UniProt P14902)

>  <unit-symbol>
nM

>  <IC50>
130

$$$$

Q. Please supply the value of reported IC50 for the item `O=C(Nc1ccc(F)cc1F)Nc1cc(-c2ccccc2-c2nnn[nH]2)cc(CC2CC2)c1Oc1ccccc1`
A. 1660

Q. Please supply the value of reported IC50 for the item C=CC(c1ccccc1)c1cc(-c2cc(F)ccc2C(=O)O)cc(NC(=O)Nc2ccc(C)cc2)c1OC1CCC(F)(F)CC1 (centres unmarked)
A. 3350

====

molecular target: IDO (Homo sapiens (Human)); experiment: Kynurenine assay in IFN-γ-stimulated Hela cells; type: cell-based; settings: 20 h, read-out: Hela Kyurenine (IC50)
readout-kind: IC50 (µM)
Write it as a number; the unit µM goes unstated.

Here is how some molecules turned out for IC50.
>  <molecule-smiles>
Cc1ccccc1NC(=O)Nc1cc(-c2cc(Cl)ccc2C(=O)O)ccc1Oc1ccccc1C(C)(C)C

>  <unit-symbol>
µM

>  <measured-number>
1.67

$$$$
>  <molecule-smiles>
COc1ccc(-c2ccc(Oc3ccccc3C(C)C)c(NC(=O)Nc3cccc(C)c3)c2)cc1C(=O)O

>  <unit-symbol>
µM

>  <measured-number>
0.2

$$$$
>  <molecule-smiles>
O=C(Nc1cc(-c2cc(Cl)cc(C(=O)O)c2)ccc1Oc1ccccc1)Nc1ccccc1C(F)(F)F

>  <unit-symbol>
µM

>  <measured-number>
1.06

$$$$

Q. Write down measured IC50 (IDO (Homo sapiens (Human))) for this molecule. `COc1ccc(-c2ccc(Oc3cccc(C(C)(C)C)c3)c(NC(=O)Nc3ccccc3C)c2)cc1C(=O)O`
A. 0.18

Q. Write down measured IC50 (IDO (Homo sapiens (Human))) for this molecule. `Cc1ccc(NC(=O)Nc2cc(-c3ccc(F)cc3C(=O)O)ccc2Oc2ccccc2C(C)(C)C)cc1`
A. 0.81

Q. Write down measured IC50 (IDO (Homo sapiens (Human))) for this molecule. `CC(C)(C)c1ccccc1Oc1ccc(-c2ccccc2-c2nnn[nH]2)cc1NC(=O)Nc1ccccc1Cl`
A. 0.21

Q. Write down measured IC50 (IDO (Homo sapiens (Human))) for this molecule. `COc1ccc(-c2ccc(Oc3ccccc3C(C)C)c(NC(=O)Nc3ccc(C)cc3)c2)cc1C(=O)O`
A. 0.39

====

target: IDO (Homo sapiens (Human)); experiment: Kynurenine assay in IFN-γ-stimulated Hela cells; format: cell-based; settings: 20 h, read-out: Hela Kyurenine (IC50)
Recorded measurements of pIC50, one per entry
// pIC50 here means minus log10 of the molar concentration (mol/L)

>  <molecule-smiles>
COc1ccc(-c2ccc(Oc3cccc4c3CCC4)c(NC(=O)Nc3ccccc3C)c2)cc1C(=O)O

>  <measured-number>
7.30

$$$$
>  <molecule-smiles>
COc1ccc(-c2ccc(Oc3ccccc3C)c(NC(=O)Nc3cccc(C)c3)c2)cc1C(=O)O

>  <measured-number>
6.41

$$$$
>  <molecule-smiles>
COc1ccc(-c2ccc(Oc3ccccc3C(C)(C)C)c(NC(=O)Nc3ccccc3C)c2)c(-c2nnn[nH]2)c1

>  <measured-number>
6.60

$$$$
>  <molecule-smiles>
CC(C)(C)c1ccccc1Oc1ccc(-c2ccc(C(=O)O)c(Cl)c2)cc1NC(=O)Nc1ccccc1C(F)(F)F

>  <measured-number>
6.82

$$$$
>  <molecule-smiles>
CCCc1ccccc1Oc1ccc(-c2ccc(OC)c(C(=O)O)c2)cc1NC(=O)Nc1cccc(C)c1

>  <measured-number>
6.22

$$$$
>  <molecule-smiles>
COc1ccc(-c2ccc(Oc3cccc(C)c3C)c(NC(=O)Nc3ccc(C)cc3)c2)cc1C(=O)O

>  <measured-number>
6.80

$$$$
>  <molecule-smiles>
COc1ccc(-c2ccc(Oc3ccccc3C(C)(C)C)c(NC(=O)Nc3cccc(F)c3)c2)cc1C(=O)O

>  <measured-number>
6.80

$$$$
>  <molecule-smiles>
Cc1ccc(NC(=O)Nc2cc(-c3ccc(C(F)(F)F)cc3C(=O)O)ccc2Oc2ccccc2C(C)(C)C)cc1

>  <measured-number>
6.70

$$$$

Q. Please supply the value of reported pIC50 for the item `COc1ccc(-c2ccc(Oc3c(C)cccc3C(C)(C)C)c(NC(=O)Nc3ccc(C)cc3)c2)cc1C(=O)O`
A. 6.51

Q. Please supply the value of reported pIC50 for the item `COc1ccc(-c2ccc(Oc3cccc4ccccc34)c(NC(=O)Nc3cccc(C)c3)c2)cc1C(=O)O`
A. 6.92

Q. Please supply the value of reported pIC50 for the item `COc1ccc(-c2ccc(Oc3ccccc3C(C)(C)C)c(NC(=O)Nc3ccc(C)c(C)c3)c2)cc1C(=O)O`
A. 6.74
